target: Angiopoietin-1 receptor (Homo sapiens)
pIC50: −log10 of the molar value.
Endpoint label: pIC50

Use these answered entries as a reference point.
COc1cc2c(Nc3ccc(-c4nc5ccccc5s4)c(F)c3)ncnc2cc1OCCCN1CCN(C)CC1 ... 8.05
COc1cc2c(Nc3ccc(-c4nc5ccccc5s4)c(Cl)c3)ncnc2cc1OCCCN1CCN(C)CC1 ... 7.43
COc1cc2c(Nc3ccc(-c4nc5cc(Cl)ccc5s4)cc3)ncnc2cc1OCCCN1CCN(C)CC1 ... 6.29

[a] COc1cc2ncnc(Nc3ccc(-c4nc5cc(Cl)ccc5s4)cc3)c2cc1OCCCN1CCN(C)CC1
[b] COc1cc2c(Nc3ccc(-c4nc5ccc(Cl)cc5s4)cc3F)ncnc2cc1OCCCN1CCN(C)CC1
[c] COc1cc(-c2nc3ccccc3s2)ccc1Nc1ncnc2cc(OCCCN3CCN(C)CC3)c(OC)cc12
Ask | Ordering criterion: pIC50; begin with the maximum. The response must list the labels following the requested ordering.
Reply | c, b, a

[A] COc1cc2ncnc(Nc3ccc(-c4nc5ccccc5s4)c(F)c3)c2cc1OCCCN1CCN(C)CC1
[B] COc1cc2c(Oc3ccc(-c4nc5ccccc5s4)cc3)ncnc2cc1OCCCN1CCN(C)CC1
[C] COc1cc2ncnc(Nc3ccc(-c4nc5ccccc5s4)c(Cl)c3)c2cc1OCCCN1CCN(C)CC1
[D] COc1cc2ncnc(Nc3ccc(-c4nc5ccccc5s4)c(OC)c3)c2cc1OCCCN1CCN(C)CC1
Ask | Sort these compounds on pIC50 so the largest reading comes first. Please list the labels according to the requested order.
Reply | B, C, D, A
(B: 7.36, C: 6.29, D: 5.85, A: 5.51)

[a] COc1cc2c(Nc3ccc(-c4nc5cc(C(F)(F)F)ccc5s4)cc3)ncnc2cc1OCCCN1CCN(C)CC1
[b] COc1cc2ncnc(Nc3ccc(-c4nc5ccccc5s4)cc3F)c2cc1OCCCN1CCN(C)CC1
Ask | Larger number for pIC50: a , or b ? Refer to your chosen item by its label in the answer.
Reply | b
(b: 6.44, a: 5.48)

###

target: Epidermal growth factor receptor (Homo sapiens, UniProt P00533); assay: Inhibition of EGFR in human HCT116 cells by cellular phosphorylation assay
Sequence (P00533 whole entry): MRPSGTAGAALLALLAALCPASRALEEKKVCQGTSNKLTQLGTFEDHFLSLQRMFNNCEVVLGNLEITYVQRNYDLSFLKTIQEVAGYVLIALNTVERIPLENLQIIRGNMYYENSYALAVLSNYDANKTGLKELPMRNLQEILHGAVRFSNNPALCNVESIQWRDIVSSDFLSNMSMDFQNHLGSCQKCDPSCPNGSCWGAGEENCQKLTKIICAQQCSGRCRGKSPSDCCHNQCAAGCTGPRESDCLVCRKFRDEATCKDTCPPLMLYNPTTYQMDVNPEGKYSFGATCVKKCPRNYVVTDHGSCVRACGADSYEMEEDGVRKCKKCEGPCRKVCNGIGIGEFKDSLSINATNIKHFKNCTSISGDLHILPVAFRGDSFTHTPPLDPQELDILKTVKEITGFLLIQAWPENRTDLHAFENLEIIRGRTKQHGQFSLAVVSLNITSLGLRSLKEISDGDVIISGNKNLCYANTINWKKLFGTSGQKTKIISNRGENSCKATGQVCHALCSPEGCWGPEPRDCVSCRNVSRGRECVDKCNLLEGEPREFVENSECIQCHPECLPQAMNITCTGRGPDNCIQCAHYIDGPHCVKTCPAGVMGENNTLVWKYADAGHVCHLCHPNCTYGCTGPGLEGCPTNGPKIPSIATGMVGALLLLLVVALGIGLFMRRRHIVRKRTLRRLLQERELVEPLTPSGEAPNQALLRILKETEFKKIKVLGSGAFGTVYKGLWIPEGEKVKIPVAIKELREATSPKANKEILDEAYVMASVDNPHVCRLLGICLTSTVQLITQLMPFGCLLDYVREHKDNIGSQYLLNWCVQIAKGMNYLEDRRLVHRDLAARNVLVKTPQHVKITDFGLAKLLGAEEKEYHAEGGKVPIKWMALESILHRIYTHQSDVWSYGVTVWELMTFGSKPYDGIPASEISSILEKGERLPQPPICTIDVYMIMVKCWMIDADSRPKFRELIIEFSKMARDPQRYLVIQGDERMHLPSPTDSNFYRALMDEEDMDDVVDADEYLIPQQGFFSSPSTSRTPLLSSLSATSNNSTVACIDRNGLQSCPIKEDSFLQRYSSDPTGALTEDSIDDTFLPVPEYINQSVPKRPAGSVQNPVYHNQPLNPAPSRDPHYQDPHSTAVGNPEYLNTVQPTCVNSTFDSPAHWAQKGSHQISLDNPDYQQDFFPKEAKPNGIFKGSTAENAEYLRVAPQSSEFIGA
Endpoint label: EC50

Field: example entries. Status: answers known.
COc1cc2c(Nc3ccc(-c4nc5ccccc5s4)c(F)c3)ncnc2cc1OCCCN1CCN(C)CC1 ... > 10 µM
COc1cc(-c2nc3ccccc3s2)ccc1Nc1ncnc2cc(OCCCN3CCN(C)CC3)c(OC)cc12 ... > 10 µM
COc1cc2c(Nc3ccc(-c4nc5ccccc5s4)c(OC)c3)ncnc2cc1OCCCN1CCN(C)CC1 ... 9.4 µM
COc1cc2c(Nc3ccc(-c4nc5ccccc5s4)c(O)c3)ncnc2cc1OCCCN1CCN(C)CC1 ... 33 µM
COc1cc2c(Nc3ccc(-c4nc5cc(Cl)ccc5s4)cc3)ncnc2cc1OCCCN1CCN(C)CC1 ... > 10 µM

Hey, Epidermal growth factor receptor (Homo sapiens, UniProt P00533) data for `COc1cc2c(Nc3ccc(-c4nc5ccc(F)cc5s4)cc3)ncnc2cc1OCCCN1CCN(C)CC1` : EC50 came out at > 10 µM

Measured on Epidermal growth factor receptor (Homo sapiens, UniProt P00533), `COc1cc2c(Nc3ccc(-c4nc5cc(C(F)(F)F)ccc5s4)cc3)ncnc2cc1OCCCN1CCN(C)CC1` has a documented EC50 of > 10 µM

Entry `COc1cc2c(Oc3ccc(-c4nc5ccccc5s4)cc3F)ncnc2cc1OCCCN1CCN(C)CC1` , tested on Epidermal growth factor receptor (Homo sapiens, UniProt P00533), has a reported EC50 of > 10 µM

Result for `COc1cc2c(Nc3ccc(-c4nc5ccccc5s4)cc3F)ncnc2cc1OCCCN1CCN(C)CC1` , tested on Epidermal growth factor receptor (Homo sapiens, UniProt P00533), EC50: > 10 µM

###

biological target: Epidermal growth factor receptor (Homo sapiens)
pIC50: −log10 of the molar value.
Endpoint label: pIC50

Example compounds with recorded pIC50:
COc1cc2ncnc(Nc3ccc(-c4nc5ccccc5s4)c(O)c3)c2cc1OCCCN1CCN(C)CC1 ... 5.48
COc1cc2ncnc(Nc3ccc(-c4nc5ccccc5s4)cc3C)c2cc1OCCCN1CCN(C)CC1 ... 5.85

[a] COc1cc2c(Nc3ccc(-c4nc5ccccc5s4)cc3O)ncnc2cc1OCCCN1CCN(C)CC1
[b] COc1cc2c(Nc3ccc(-c4nc5ccccc5s4)cc3)ncnc2cc1OCCCN1CCN(C)CC1
[c] COc1cc2ncnc(Nc3ccc(-c4nc5ccccc5s4)cc3O)c2cc1OC
[d] COc1cc2c(Nc3ccc(-c4nc5ccccc5s4)c(O)c3)ncnc2cc1OCCCN1CCN(C)CC1
[e] COc1ccc2nc(-c3ccc(Nc4ncnc5cc(OCCCN6CCN(C)CC6)c(OC)cc45)cc3)sc2c1
Ask | Sort low-to-high on pIC50, please. Put the labels in the requested order and write them down.
Reply | c, a, e, d, b

###

molecular target: Angiopoietin-1 receptor (Homo sapiens, UniProt Q02763); test: Inhibition of TIE2 in human HCT116 cells by cellular phosphorylation assay
Sequence (Q02763 whole entry): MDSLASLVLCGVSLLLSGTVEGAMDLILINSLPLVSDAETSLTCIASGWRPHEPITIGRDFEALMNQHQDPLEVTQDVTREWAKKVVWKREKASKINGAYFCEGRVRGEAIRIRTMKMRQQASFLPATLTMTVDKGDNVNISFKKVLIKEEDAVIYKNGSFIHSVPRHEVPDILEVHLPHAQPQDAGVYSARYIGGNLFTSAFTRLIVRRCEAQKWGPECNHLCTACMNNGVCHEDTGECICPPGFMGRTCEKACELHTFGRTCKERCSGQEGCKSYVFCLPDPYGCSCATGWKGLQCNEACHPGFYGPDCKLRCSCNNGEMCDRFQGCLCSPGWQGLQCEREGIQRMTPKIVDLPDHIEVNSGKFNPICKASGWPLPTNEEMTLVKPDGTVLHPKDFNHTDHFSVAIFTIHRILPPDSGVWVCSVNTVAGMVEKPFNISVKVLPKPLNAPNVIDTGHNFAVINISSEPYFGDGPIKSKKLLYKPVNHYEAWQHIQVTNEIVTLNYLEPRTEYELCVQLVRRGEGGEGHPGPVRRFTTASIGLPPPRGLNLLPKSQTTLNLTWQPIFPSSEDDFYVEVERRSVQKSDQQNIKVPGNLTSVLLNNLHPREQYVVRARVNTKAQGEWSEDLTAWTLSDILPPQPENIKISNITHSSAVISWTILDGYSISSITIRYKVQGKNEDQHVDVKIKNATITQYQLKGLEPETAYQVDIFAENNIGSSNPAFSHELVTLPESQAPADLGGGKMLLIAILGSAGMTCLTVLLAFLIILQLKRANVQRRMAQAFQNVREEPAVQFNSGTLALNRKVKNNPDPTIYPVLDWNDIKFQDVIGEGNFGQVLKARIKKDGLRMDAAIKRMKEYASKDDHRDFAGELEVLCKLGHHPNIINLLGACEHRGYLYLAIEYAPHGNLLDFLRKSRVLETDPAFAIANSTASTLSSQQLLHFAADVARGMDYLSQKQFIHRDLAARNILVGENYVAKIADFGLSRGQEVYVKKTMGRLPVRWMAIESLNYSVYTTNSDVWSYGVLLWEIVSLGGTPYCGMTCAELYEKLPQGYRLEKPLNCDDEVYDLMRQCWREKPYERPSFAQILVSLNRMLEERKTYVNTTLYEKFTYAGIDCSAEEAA
Endpoint label: EC50 (µM)

COc1cc2c(Oc3ccc(-c4nc5ccccc5s4)cc3F)ncnc2cc1OCCCN1CCN(C)CC1 ... 0.3
COc1cc2c(Nc3ccc(-c4nc5ccccc5s4)cc3F)ncnc2cc1OCCCN1CCN(C)CC1 ... 2.1

[1] COc1cc2c(Nc3ccc(-c4nc5ccccc5s4)c(Cl)c3)ncnc2cc1OCCCN1CCN(C)CC1
[2] COc1cc2c(Oc3ccc(-c4nc5ccccc5s4)cc3)ncnc2cc1OCCCN1CCCC1
Ask | Smaller EC50 value? Options are 1 and 2 Respond with the label that goes with your answer.
Reply | 2

###

Measured pIC50 (Receptor tyrosine-protein kinase erbB-2 (Homo sapiens, UniProt P04626))
pIC50: −log10 of the molar value.
Endpoint label: pIC50

COc1cc2ncnc(Nc3ccc(-c4nc5ccccc5s4)cc3)c2cc1OCCCN1CCN(C)CC1 ... 5.66

[1] COc1cc2c(Nc3ccc(-c4nc5ccccc5s4)c(OC)c3)ncnc2cc1OCCCN1CCN(C)CC1
[2] COc1cc2c(Nc3ccc(-c4nc5ccc(Cl)cc5s4)cc3)ncnc2cc1OCCCN1CCN(C)CC1
[3] COc1cc2c(Nc3ccc(-c4nc5ccccc5s4)cc3C)ncnc2cc1OCCCN1CCN(C)CC1
Ask | Ordering: ascending pIC50. Ranked list of labels, please, in the requested order.
Reply | 2, 3, 1

###

Assay system Vascular endothelial growth factor receptor 2 (Homo sapiens, UniProt P35968); read-out recorded as pIC50.
pIC50: −log10 of the molar value.
Endpoint label: pIC50

// worked examples, pIC50 included
COc1cc2c(Nc3ccc(-c4nc5ccccc5s4)cc3F)ncnc2cc1OCCCN1CCN(C)CC1 ... 7.21
COc1cc2c(Nc3ccc(-c4nc5ccccc5s4)c(F)c3)ncnc2cc1OCCCN1CCN(C)CC1 ... 7.36

[1] COc1ccc2nc(-c3ccc(Nc4ncnc5cc(OCCCN6CCN(C)CC6)c(OC)cc45)cc3)sc2c1
[2] COc1cc2c(Nc3ccc(-c4nc5ccccc5s4)cc3O)ncnc2cc1OCCCN1CCN(C)CC1
Ask | Which entry has a larger number for pIC50, 1 or 2 ? Please indicate the selected item by its label.
Reply | 2
(2: 6.55, 1: 6.16)

###

biological target: Vascular endothelial growth factor receptor 2 (Homo sapiens, UniProt P35968)
Sequence (P35968 whole entry): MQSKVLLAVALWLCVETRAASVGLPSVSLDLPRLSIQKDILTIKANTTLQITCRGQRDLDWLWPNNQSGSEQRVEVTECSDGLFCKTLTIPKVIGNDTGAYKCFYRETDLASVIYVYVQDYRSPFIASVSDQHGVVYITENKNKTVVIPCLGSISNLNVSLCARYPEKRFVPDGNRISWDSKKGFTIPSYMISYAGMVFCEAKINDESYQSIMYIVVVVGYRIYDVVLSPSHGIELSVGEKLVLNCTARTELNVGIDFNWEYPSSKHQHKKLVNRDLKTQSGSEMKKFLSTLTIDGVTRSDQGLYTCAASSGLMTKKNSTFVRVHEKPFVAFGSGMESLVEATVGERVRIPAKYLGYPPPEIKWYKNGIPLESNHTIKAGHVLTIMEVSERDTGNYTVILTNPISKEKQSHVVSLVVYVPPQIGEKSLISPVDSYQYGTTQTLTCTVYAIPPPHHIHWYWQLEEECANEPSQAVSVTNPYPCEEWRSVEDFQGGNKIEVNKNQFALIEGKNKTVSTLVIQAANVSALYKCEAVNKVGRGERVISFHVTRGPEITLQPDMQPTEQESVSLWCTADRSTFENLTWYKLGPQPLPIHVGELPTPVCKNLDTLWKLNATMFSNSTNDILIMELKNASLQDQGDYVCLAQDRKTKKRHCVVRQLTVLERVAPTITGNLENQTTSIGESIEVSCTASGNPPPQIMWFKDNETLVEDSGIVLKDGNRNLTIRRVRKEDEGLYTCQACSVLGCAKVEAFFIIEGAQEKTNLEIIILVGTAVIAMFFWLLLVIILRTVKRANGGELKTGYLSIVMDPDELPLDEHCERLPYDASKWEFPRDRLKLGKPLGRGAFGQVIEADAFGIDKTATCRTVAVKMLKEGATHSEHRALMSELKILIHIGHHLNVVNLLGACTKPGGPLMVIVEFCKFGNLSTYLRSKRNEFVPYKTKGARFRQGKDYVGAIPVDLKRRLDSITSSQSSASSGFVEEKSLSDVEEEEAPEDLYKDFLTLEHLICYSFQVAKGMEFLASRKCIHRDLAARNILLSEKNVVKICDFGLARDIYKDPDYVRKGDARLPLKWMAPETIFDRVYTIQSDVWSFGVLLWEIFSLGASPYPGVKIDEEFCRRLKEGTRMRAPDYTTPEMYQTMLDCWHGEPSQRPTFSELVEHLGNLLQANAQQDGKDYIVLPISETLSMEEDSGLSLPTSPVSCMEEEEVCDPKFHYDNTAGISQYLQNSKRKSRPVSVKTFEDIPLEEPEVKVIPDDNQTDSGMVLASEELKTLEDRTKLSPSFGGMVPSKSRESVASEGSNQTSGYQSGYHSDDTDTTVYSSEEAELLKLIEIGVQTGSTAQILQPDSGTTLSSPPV
Endpoint label: IC50 (nM)

COc1cc2c(Nc3ccc(-c4nc5ccccc5s4)c(O)c3)ncnc2cc1OCCCN1CCN(C)CC1 ... 380
COc1cc2c(Oc3ccc(-c4nc5ccccc5s4)cc3F)ncnc2cc1OCCCN1CCN(C)CC1 ... 420
COc1cc2c(Oc3ccc(-c4nc5ccccc5s4)cc3)ncnc2cc1OCCCN1CCCC1 ... 350

###

pIC50: −log10 of the molar value.
Quick note: these are pIC50 numbers for system: Platelet-derived growth factor receptor beta (Homo sapiens, UniProt P09619)
Sequence (P09619 whole entry): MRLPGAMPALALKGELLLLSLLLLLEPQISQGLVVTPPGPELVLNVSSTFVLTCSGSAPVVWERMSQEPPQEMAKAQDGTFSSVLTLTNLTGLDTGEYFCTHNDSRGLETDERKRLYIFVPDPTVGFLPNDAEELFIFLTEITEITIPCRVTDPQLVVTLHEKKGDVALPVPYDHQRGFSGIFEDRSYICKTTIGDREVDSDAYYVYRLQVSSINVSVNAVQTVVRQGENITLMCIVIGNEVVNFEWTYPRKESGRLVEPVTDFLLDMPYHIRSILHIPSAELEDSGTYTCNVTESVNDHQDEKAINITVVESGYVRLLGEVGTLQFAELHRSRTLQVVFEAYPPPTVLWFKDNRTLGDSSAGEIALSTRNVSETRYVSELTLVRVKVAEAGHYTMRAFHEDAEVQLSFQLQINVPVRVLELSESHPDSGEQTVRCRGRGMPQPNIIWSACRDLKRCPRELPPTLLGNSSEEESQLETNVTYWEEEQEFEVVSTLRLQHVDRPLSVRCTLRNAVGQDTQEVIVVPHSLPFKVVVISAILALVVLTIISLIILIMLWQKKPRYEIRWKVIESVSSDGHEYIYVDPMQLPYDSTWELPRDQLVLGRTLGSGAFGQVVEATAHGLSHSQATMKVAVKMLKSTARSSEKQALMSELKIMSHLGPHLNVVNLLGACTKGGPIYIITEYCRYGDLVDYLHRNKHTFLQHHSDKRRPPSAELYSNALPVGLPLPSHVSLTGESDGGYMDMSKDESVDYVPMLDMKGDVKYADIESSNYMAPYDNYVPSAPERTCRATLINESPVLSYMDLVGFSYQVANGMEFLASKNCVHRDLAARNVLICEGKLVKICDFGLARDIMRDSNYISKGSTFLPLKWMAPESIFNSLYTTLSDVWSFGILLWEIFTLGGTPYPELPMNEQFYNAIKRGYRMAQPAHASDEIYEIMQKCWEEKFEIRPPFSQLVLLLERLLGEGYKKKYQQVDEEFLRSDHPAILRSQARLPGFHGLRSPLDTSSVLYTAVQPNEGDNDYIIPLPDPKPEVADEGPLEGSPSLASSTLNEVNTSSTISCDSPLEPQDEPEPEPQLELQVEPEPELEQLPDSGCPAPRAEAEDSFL
Endpoint label: pIC50

Some compounds with recorded pIC50:
COc1cc2c(Oc3ccc(-c4nc5ccccc5s4)cc3)ncnc2cc1OCCCN1CCCC1 ... 5.11
COc1cc2ncnc(Nc3ccc(-c4nc5cc(Cl)ccc5s4)cc3)c2cc1OCCCN1CCN(C)CC1 ... 5.00
COc1cc2c(Nc3ccc(-c4nc5ccccc5s4)cc3OC(F)(F)F)ncnc2cc1OCCCN1CCN(C)CC1 ... 5.04
COc1cc2ncnc(Nc3ccc(-c4nc5ccccc5s4)cc3F)c2cc1OCCCN1CCN(C)CC1 ... 5.00

[I] COc1cc2c(Nc3ccc(-c4nc5ccc(F)cc5s4)cc3)ncnc2cc1OCCCN1CCN(C)CC1
[II] COc1cc2c(Nc3ccc(-c4nc5ccccc5s4)c(OC)c3)ncnc2cc1OCCCN1CCN(C)CC1
Ask | Would you let me know which has the greater pIC50 value, I or II ? # respond with the chosen item's label
Reply | II
